Listed compounds paired with reported TGI
- Test system: UACC-257 melanoma
- experimentNotes: NCI tumour cell line growth inhibition, 48 h
experimentalReadout: TGI

{"columns": ["compound", "experimentalReadout", "measurement"],
 "data": [
  ["Cn1cc(-c2ccc(-c3cn(C)c4ncccc34)[nH]2)c2cccnc21", "TGI", "19.6 µM"],
  ["CN(C)CC/C(=N\\Nc1c(F)c(F)c(F)c(F)c1F)c1ccccc1", "TGI", "80.6 µM"],
  ["CN(C)c1ccc(/C=C2\\N=C(N/N=C/c3ccc(N(C)C)cc3)NC2=O)cc1", "TGI", "> 100 µM"],
  ["CC1=Nc2c(N)nc(N)nc2N(C)C1", "TGI", "> 100 µM"],
  ["O=c1c2sc3ccccc3c2nnn1-c1ccc(F)c(Cl)c1", "TGI", "> 100 µM"],
  ["Cc1c(-c2ccc(O)c(O)c2)oc(=O)c2c(O)cc(O)cc12", "TGI", "53.3 µM"],
  ["COc1ccc2nc(NC(=O)COc3cc(/C=C\\c4cc(OC)c(OC)c(OC)c4)ccc3OC)sc2c1", "TGI", "> 100 µM"],
  ["CN(C)CCCNC(=S)S", "TGI", "> 100 µM"],
  ["CN1N=C(c2ccncc2)OC1c1ccc(Cl)cc1Cl (stereo unspecified)", "TGI", "> 100 µM"],
  ["CCOC(=O)C1N(S(=O)(=O)c2ccc(C)cc2)CCC12C(c1ccc(OC)c(OC)c1)=Nc1ccccc12 (stereo unspecified)", "TGI", "> 100 µM"],
  ["C=C1C(=O)C2=C[C@H]1C[C@H](O)C(=O)[C@]1(C)CCCC(C)(C)[C@H]1C[C@H]2O", "TGI", "4.27 µM"]
]}
